target: T1, integrin αvβ3 (human, UniProt P06756 31-1048; P05106 27-788); assay: competitive binding with 125I-c(RGDyK) on U87MG cells
T1 construct: whole, on cells; Endogenous receptor on U87MG human glioblastoma cells in the IC50 assays; also called integrin alpha v beta 3; human integrin αvβ3
T1 sequence (P06756 31-1048, chain 1 of 2): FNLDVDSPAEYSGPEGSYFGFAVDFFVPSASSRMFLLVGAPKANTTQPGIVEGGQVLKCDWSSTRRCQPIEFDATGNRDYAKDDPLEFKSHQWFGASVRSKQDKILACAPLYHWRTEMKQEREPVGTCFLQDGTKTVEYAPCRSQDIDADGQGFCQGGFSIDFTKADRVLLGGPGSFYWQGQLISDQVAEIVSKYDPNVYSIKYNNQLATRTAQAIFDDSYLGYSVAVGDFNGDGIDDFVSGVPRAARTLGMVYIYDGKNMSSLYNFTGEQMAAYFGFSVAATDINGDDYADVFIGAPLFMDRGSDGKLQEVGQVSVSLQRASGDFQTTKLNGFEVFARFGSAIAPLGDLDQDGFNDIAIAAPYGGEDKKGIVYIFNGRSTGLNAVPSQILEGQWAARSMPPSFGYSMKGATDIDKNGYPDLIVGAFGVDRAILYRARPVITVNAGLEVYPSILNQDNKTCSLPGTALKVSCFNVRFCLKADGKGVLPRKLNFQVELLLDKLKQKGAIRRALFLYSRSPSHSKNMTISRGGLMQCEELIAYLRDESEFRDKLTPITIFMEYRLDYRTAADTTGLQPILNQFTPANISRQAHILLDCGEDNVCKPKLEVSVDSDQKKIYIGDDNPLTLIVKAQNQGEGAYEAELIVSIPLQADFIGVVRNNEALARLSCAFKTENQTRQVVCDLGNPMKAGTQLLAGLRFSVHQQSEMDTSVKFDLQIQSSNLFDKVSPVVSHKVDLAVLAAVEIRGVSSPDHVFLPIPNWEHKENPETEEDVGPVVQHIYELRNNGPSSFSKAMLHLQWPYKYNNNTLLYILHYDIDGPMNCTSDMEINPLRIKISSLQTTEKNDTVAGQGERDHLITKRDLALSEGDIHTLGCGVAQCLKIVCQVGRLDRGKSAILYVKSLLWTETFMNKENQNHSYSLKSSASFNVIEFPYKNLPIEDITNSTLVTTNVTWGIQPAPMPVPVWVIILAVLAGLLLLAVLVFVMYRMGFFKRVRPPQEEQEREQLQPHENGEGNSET
T1 sequence (P05106 27-788, chain 2 of 2): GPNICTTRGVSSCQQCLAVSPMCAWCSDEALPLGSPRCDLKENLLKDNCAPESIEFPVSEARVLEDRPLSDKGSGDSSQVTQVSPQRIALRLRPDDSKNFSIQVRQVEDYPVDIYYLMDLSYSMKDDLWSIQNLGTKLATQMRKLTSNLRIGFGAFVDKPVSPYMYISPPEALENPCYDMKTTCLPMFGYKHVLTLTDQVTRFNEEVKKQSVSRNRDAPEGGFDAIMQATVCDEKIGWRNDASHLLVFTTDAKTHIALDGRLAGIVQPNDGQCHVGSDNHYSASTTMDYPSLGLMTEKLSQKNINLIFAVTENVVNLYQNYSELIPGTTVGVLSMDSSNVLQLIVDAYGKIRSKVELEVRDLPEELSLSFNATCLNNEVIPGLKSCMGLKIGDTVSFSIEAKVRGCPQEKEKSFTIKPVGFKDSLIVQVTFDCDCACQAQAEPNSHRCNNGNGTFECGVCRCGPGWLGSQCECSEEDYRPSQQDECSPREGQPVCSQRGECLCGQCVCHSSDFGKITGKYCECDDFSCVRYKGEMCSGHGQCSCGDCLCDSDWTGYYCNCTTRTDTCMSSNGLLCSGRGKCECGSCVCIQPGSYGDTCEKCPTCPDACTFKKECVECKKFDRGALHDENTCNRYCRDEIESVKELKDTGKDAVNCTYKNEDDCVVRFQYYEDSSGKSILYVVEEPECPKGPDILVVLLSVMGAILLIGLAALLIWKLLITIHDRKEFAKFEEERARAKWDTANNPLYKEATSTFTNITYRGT
MEASUREMENT KIND: IC50 (nM)
One number for each entry, in nM.

Prompt: Item DOTA-RGD-BBN (VIII) (not fully specified; DOTA (from DOTA-OSSu) on the amine of RGD-bombesin; Aca between Glu and Gln; C-terminal amide (Met-NH2); cyclic (cyclo); D-Tyr at position 4; Lys side chain joined to the Glu linker, also called DOTA-RGD-bombesin; ^64Cu-DOTA-RGD-BBN) peptide 1: RGDYK peptide 2: EQWAVGHLM has what recorded IC50?
Response: 21.6

src = patent US20100015058A1
